# Tested on: SK-MEL-5 melanoma
# Run Description: NCI-60 one-dose screen, 48 h (100 = growth as untreated, 0 = no growth, -100 = all killed)
# Settings: 10 µM unless noted
This is part of a sample that, as a whole, favours compounds with a hit. Of some 83,000 tested, about 20% had one in any assay.
Property Label: growth (%)

>>> df
                                    compound  property_label  measurement_unit  value
 0                       c1ccc(CCn2cccc2)nc1          growth                 %    109
 1  CC(=O)C1CCC2C3CC(C)=C4CC(O)CCC4(C)C3CCC12C (configuration not stated)          growth                 %   99.4
 2          O=C(N/N=C\c1cc(Br)ccc1O)c1ccncc1          growth                 %   39.8
 3  O=C(Nc1ccncc1)C(=O)c1cn(S(=O)(=O)c2cccc(Cl)c2F)c2ccccc12          growth                 %   57.5
 4  CNC(=O)c1c(NC(=O)c2ccc(C(C)C)cc2)sc2c1CCC(=O)C2          growth                 %  -71.4
 5  CC1=CC(=O)OC1C/C=C(\C)CCC1[C@@]2(C)CCC[C@@](C)(C(=O)O)C2CC[C@@]1(C)O (some centres not stated)          growth                 %  -23.8
 6       N=C(N)c1ccc(-c2ccc(-c3cccs3)s2)cc1F          growth                 %    -98
 7  COc1ccc(NC(=O)c2sc3c(=O)[nH]c(C(F)(F)F)nc3c2C)cc1          growth                 %    106
 8  COc1ccc(C(=O)C(CN(C)C)c2ccc(OC)cc2)cc1 (configuration not stated)          growth                 %   95.5
 9  CCN1C(=O)N(CC)C2C1N=C(SC)N2/N=C/C=C/c1ccccc1OC (configuration not stated)          growth                 %   0.74
10  Cc1ccccc1C1CC(=O)c2ccccc2C1C (configuration not stated)          growth                 %    105
11  O=C(Nc1cccc(C2=NCCN2)c1)c1ccc(N=Nc2ccc(C(=O)Nc3cccc(C4=NCCN4)c3)cc2)cc1          growth                 %   80.4
12       Oc1ccccc1-c1nnc(COc2ccc(Cl)cc2Cl)o1          growth                 %   32.3
13  COc1cc(NC(=O)CSc2nc3ccc(Cl)cc3c(=O)n2Cc2ccccc2)cc(OC)c1OC          growth                 %   45.5
14  Cc1ccc(OC2=C(C#N)C(=N)N3C(=NN2)Sc2c(C)ccc(C)c23)cc1          growth                 %   96.3
15  COc1cccc(/C(C)=N/NC(=O)CSc2nc3ccccc3c(=O)n2CCc2ccc(S(N)(=O)=O)cc2)c1          growth                 %   1.45
16          COC1(OC)C2(Cl)CCC1(Cl)C(Cl)=C2Cl          growth                 %    102
17       O=C(CC(=O)c1cccc(Cl)c1)c1cccc(Cl)c1          growth                 %   36.8
18        Nc1nc(NC2CC2)cc(-c2cccc(Cl)c2Cl)n1          growth                 %   46.5
19  CN(C)c1nc(-c2cccs2)n2nc(-c3ccc(Cl)cc3)cc2n1          growth                 %   64.2
20  O=C(C(=O)N1CCCC1)c1cn(CCCn2cc(C(=O)C(=O)N3CCCC3)c3cc(Br)ccc32)c2ccc(Br)cc12          growth                 %   90.8
21          C[N+](C)(C)CCCCCCCCCC[N+](C)(C)C          growth                 %   97.4
